Reported Mean Percent Inhibition of Control Specific Binding values are given for each entry in this list.
# test_system: COX1(h) (Homo sapiens, UniProt P23219)
# Sequence (P23219 24-599): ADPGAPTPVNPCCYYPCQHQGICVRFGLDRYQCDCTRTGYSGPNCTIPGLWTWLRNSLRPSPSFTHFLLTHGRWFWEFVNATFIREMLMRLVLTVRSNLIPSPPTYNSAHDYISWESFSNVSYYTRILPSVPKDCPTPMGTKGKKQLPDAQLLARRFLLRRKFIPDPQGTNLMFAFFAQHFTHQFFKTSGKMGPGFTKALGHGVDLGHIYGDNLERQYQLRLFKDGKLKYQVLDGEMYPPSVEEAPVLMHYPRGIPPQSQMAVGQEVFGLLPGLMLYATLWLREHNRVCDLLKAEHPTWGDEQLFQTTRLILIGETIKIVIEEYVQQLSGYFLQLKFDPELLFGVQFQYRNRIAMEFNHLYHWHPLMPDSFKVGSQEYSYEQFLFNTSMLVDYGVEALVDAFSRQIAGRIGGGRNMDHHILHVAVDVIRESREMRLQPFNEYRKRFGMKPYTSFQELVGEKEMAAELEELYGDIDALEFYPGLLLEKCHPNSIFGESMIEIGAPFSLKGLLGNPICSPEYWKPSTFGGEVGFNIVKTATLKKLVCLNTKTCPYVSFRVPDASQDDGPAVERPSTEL
# method_description: Enzyme assay COX1(h), arachidonic acid + ADHP, fluorimetry
# Assay type: biochemical
Numbers only here, please. The scale is %.

Some molecules with known Mean Percent Inhibition of Control Specific Binding results, for comparison:
- molecule: "COCCc1cc(CCN)c(OC)cc1Br [Compound 2CB-5ME, reference compound]"
  numeric_readout: "−4.7"
- molecule: "COCc1cc(CCN)c(OC)cc1Br"
  numeric_readout: 0.3
- molecule: "COCc1cc(CCN)c(O)cc1CC(C)C"
  numeric_readout: "−37.4"

Now for the molecule whose Mean Percent Inhibition of Control Specific Binding we want.
Input line: Quick one: give measured Mean Percent Inhibition of Control Specific Binding for COCc1cc(CCN)c(OC)cc1CC(C)C
Output line: 13.8
